# Test system: Escherichia coli TOP10
# PROTOCOL: shrunken log2 fold change of peptide-encoding DNA abundance (4.5 h post-induction vs induction); higher = less antimicrobial activity (less host growth inhibition)
# EXPERIMENTAL SETUP: time post-induction: 4.5 h; library: site-saturation at positions 5, 18, 19, 20
Note to self: values exactly at 0.004 are yes (1). So shrunken log2 fold change at or above 0.004 is yes (1), below is no (0).

[[record]]
primary_sequence = "RRIRCRPPRLPRPRPRPTQAPRP"
assigned_class = "yes (1)"

[[record]]
primary_sequence = "RRIRQRPPRLPRPRPRPQFGPRP"
assigned_class = "yes (1)"

[[record]]
primary_sequence = "RRIRARPPRLPRPRPRPGESPRP"
assigned_class = "yes (1)"


Confirm if shrunken log2 fold change reported for the sequence "RRIRRRPPRLPRPRPRPSESPRP" is 0.004 or above.
yes (1)

Further, for "RRIRMRPPRLPRPRPRPCGWPRP" ?
yes (1)

Further, for "RRIRDRPPRLPRPRPRPMFKPRP" ?
no (0)

Further, for "RRIRARPPRLPRPRPRPREFPRP" ?
yes (1)

Further, for "RRIRVRPPRLPRPRPRPVHGPRP" ?
no (0)

Further, for "RRIRSRPPRLPRPRPRPPAAPRP" ?
yes (1)

====

# System: Escherichia coli TOP10
# PROTOCOL: shrunken log2 fold change of peptide-encoding DNA abundance (4.5 h post-induction vs induction); higher = less antimicrobial activity (less host growth inhibition)
# EXPERIMENTAL SETUP: time post-induction: 4.5 h; library: site-saturation at positions 5, 18, 19, 20
ENDPOINT LABEL: shrunken log2 fold change
No unit in the answer, only the number.

Below, 6 sequences whose answers are already recorded.
[[record]]
primary_sequence = "RRIRVRPPRLPRPRPRPVHEPRP"
system = "Escherichia coli TOP10"
endpoint_label = "shrunken log2 fold change"
result = -0.104

[[record]]
primary_sequence = "RRIRNRPPRLPRPRPRPAHPPRP"
system = "Escherichia coli TOP10"
endpoint_label = "shrunken log2 fold change"
result = 0.307

[[record]]
primary_sequence = "RRIRGRPPRLPRPRPRPQGMPRP"
system = "Escherichia coli TOP10"
endpoint_label = "shrunken log2 fold change"
result = 0.0957

[[record]]
primary_sequence = "RRIRIRPPRLPRPRPRPREKPRP"
system = "Escherichia coli TOP10"
endpoint_label = "shrunken log2 fold change"
result = 0.111

[[record]]
primary_sequence = "RRIRYRPPRLPRPRPRPCMGPRP"
system = "Escherichia coli TOP10"
endpoint_label = "shrunken log2 fold change"
result = -0.198

[[record]]
primary_sequence = "RRIRCRPPRLPRPRPRPWHVPRP"
system = "Escherichia coli TOP10"
endpoint_label = "shrunken log2 fold change"
result = -0.259


Look at this sequence and give its reported shrunken log2 fold change. "RRIRCRPPRLPRPRPRPSIRPRP"
-0.608

Further, for "RRIRSRPPRLPRPRPRPHVPPRP" ?
-0.149

Further, for "RRIRKRPPRLPRPRPRPEQGPRP" ?
0.199

Further, for "RRIRKRPPRLPRPRPRPANWPRP" ?
0.596

Further, for "RRIRGRPPRLPRPRPRPEMTPRP" ?
3.26

Further, for "RRIRRRPPRLPRPRPRPNQTPRP" ?
0.0193

====

# Test system: Escherichia coli TOP10
# PROTOCOL: shrunken log2 fold change of peptide-encoding DNA abundance (4.5 h post-induction vs induction); higher = less antimicrobial activity (less host growth inhibition)
# EXPERIMENTAL SETUP: time post-induction: 4.5 h; library: site-saturation at positions 5, 18, 19, 20
ENDPOINT LABEL: shrunken log2 fold change
No unit in the answer, only the number.

Below, 8 sequences whose answers are already recorded.
[[record]]
primary_sequence = "RRIRRRPPRLPRPRPRPGPPPRP"
system = "Escherichia coli TOP10"
endpoint_label = "shrunken log2 fold change"
result = 1.93

[[record]]
primary_sequence = "RRIRIRPPRLPRPRPRPWDFPRP"
system = "Escherichia coli TOP10"
endpoint_label = "shrunken log2 fold change"
result = -0.11

[[record]]
primary_sequence = "RRIRLRPPRLPRPRPRPDNGPRP"
system = "Escherichia coli TOP10"
endpoint_label = "shrunken log2 fold change"
result = -0.0567

[[record]]
primary_sequence = "RRIRHRPPRLPRPRPRPMVTPRP"
system = "Escherichia coli TOP10"
endpoint_label = "shrunken log2 fold change"
result = -1.08

[[record]]
primary_sequence = "RRIRLRPPRLPRPRPRPGIDPRP"
system = "Escherichia coli TOP10"
endpoint_label = "shrunken log2 fold change"
result = -0.0208

[[record]]
primary_sequence = "RRIRTRPPRLPRPRPRPFLDPRP"
system = "Escherichia coli TOP10"
endpoint_label = "shrunken log2 fold change"
result = -0.553

[[record]]
primary_sequence = "RRIRNRPPRLPRPRPRPRNRPRP"
system = "Escherichia coli TOP10"
endpoint_label = "shrunken log2 fold change"
result = -0.000801

[[record]]
primary_sequence = "RRIRARPPRLPRPRPRPGMHPRP"
system = "Escherichia coli TOP10"
endpoint_label = "shrunken log2 fold change"
result = 0.233


Look at this sequence and give its reported shrunken log2 fold change. "RRIRKRPPRLPRPRPRPQQYPRP"
0.183

Further, for "RRIRTRPPRLPRPRPRPGSPPRP" ?
0.0989

Further, for "RRIRHRPPRLPRPRPRPKLQPRP" ?
0.0439

Further, for "RRIRQRPPRLPRPRPRPDIMPRP" ?
-0.136

Further, for "RRIRQRPPRLPRPRPRPEVIPRP" ?
-0.00663

Further, for "RRIRWRPPRLPRPRPRPKRYPRP" ?
0.0352

Further, for "RRIRIRPPRLPRPRPRPVCNPRP" ?
-0.52

Further, for "RRIRMRPPRLPRPRPRPHKQPRP" ?
0.0796

Further, for "RRIRIRPPRLPRPRPRPCMGPRP" ?
-1.07

Further, for "RRIRLRPPRLPRPRPRPQELPRP" ?
-0.0432

Further, for "RRIRQRPPRLPRPRPRPGRPPRP" ?
0.121

Further, for "RRIRCRPPRLPRPRPRPTRQPRP" ?
0.503

Further, for "RRIRKRPPRLPRPRPRPPWYPRP" ?
0.131

====

Overview of recorded shrunken log2 fold change for various sequences
# System: Escherichia coli TOP10
# PROTOCOL: shrunken log2 fold change of peptide-encoding DNA abundance (4.5 h post-induction vs induction); higher = less antimicrobial activity (less host growth inhibition)
# EXPERIMENTAL SETUP: time post-induction: 4.5 h; library: site-saturation at positions 5, 18, 19, 20
No unit in the answer, only the number.

Below, 4 sequences whose answers are already recorded.
[[record]]
primary_sequence = "RRIRARPPRLPRPRPRPMFPPRP"
result = -0.147

[[record]]
primary_sequence = "RRIRHRPPRLPRPRPRPHFMPRP"
result = 0.00955

[[record]]
primary_sequence = "RRIRVRPPRLPRPRPRPQHAPRP"
result = -0.154

[[record]]
primary_sequence = "RRIRERPPRLPRPRPRPIEAPRP"
result = -0.0164


Look at this sequence and give its reported shrunken log2 fold change. "RRIRGRPPRLPRPRPRPTKEPRP"
0.439

Further, for "RRIRMRPPRLPRPRPRPPQFPRP" ?
0.0882

====

# System: Escherichia coli TOP10
# PROTOCOL: shrunken log2 fold change of peptide-encoding DNA abundance (4.5 h post-induction vs induction); higher = less antimicrobial activity (less host growth inhibition)
# EXPERIMENTAL SETUP: time post-induction: 4.5 h; library: site-saturation at positions 5, 18, 19, 20
Overview of recorded shrunken log2 fold change for various sequences
No unit in the answer, only the number.

Look at this sequence and give its reported shrunken log2 fold change. "RRIRGRPPRLPRPRPRPMWFPRP"
0.185

Further, for "RRIRKRPPRLPRPRPRPKMMPRP" ?
0.421

Further, for "RRIRSRPPRLPRPRPRPIWRPRP" ?
0.639

====

# Tested on: Escherichia coli TOP10;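 note: peptides expressed intracellularly from a pBAD plasmid library in pooled LB shake-flask culture, induced with 0.3% L-arabinose, DNA abundance read by NGS, three biological replicates, DESeq2 with apeglm shrinkage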
# PROTOCOL: shrunken log2 fold change of peptide-encoding DNA abundance (4.5 h post-induction vs induction); higher = less antimicrobial activity (less host growth inhibition)
# EXPERIMENTAL SETUP: time post-induction: 4.5 h; library: site-saturation at positions 5, 18, 19, 20
ENDPOINT LABEL: shrunken log2 fold change
No unit in the answer, only the number.

Below, 5 sequences whose answers are already recorded.
[[record]]
primary_sequence = "RRIRHRPPRLPRPRPRPMVYPRP"
result = -0.0125

[[record]]
primary_sequence = "RRIRDRPPRLPRPRPRPAGNPRP"
result = 0.0407

[[record]]
primary_sequence = "RRIRDRPPRLPRPRPRPFNHPRP"
result = -0.368

[[record]]
primary_sequence = "RRIRPRPPRLPRPRPRPDDDPRP"
result = -0.175

[[record]]
primary_sequence = "RRIRLRPPRLPRPRPRPQLQPRP"
result = 0.037


Enter reported shrunken log2 fold change observed with Escherichia coli TOP10 for "RRIRCRPPRLPRPRPRPLMGPRP"
-0.214
